- experimental_target: GlyRα3 (Homo sapiens, UniProt O75311)
- Construct: full-length, C-terminal thrombin site and 8x histidine tag, homopentamer in peptidisc (cryo-EM); full-length in Xenopus oocytes (TEVC)
- Sequence (O75311 34-464): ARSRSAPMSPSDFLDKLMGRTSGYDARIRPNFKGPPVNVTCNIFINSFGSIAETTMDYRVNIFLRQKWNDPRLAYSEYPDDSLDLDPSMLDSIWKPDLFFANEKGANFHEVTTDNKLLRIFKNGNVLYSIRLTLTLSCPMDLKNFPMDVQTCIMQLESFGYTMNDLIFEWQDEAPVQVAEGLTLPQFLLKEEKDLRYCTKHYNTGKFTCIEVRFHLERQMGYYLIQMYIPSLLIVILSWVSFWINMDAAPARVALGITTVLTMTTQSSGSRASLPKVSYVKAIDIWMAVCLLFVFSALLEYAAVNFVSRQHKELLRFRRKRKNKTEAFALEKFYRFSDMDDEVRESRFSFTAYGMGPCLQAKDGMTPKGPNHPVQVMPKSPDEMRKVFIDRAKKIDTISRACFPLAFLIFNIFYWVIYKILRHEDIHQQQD
- measurement_notes: cryo-EM structures with glycine density; EC50 by two-electrode voltage clamp in Xenopus oocytes
reported_endpoint: pEC50
Kindly note that pEC50 refers to -log10 of the concentration in mol/L and answer with the value alone.

q: For NCC(=O)O , what is its reported pEC50?
a: 3.67
